molecular target: UniProtKB P08908; experiment: Concentration required to obtain 50% maximal stimulation of [35S]GTP gamma-S binding to human cloned 5-HT1A receptors of cell membranes from HeLa cells; assay type: functional
Sequence (P08908 whole entry): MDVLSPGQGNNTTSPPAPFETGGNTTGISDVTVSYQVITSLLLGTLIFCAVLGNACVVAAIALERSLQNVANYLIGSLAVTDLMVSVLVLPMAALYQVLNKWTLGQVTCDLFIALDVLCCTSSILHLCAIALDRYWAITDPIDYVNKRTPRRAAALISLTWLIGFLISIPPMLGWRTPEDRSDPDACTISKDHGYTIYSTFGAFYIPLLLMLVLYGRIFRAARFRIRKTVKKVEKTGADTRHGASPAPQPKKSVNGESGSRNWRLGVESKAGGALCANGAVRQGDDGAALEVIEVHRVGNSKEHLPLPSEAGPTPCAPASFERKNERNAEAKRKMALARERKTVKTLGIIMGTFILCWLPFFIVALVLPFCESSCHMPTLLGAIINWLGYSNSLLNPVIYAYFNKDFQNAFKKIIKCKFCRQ
Kindly state pD2 for each of the entries shown.
I'd appreciate a reply containing only the number, no unit.

Give the reported pD2 for O[C@@H]1[C@H](NC[C@H]2COc3ccccc3O2)CC[C@H]1Oc1ccccc1 (system: UniProtKB P08908). 5.87

Give the reported pD2 for O[C@H]1[C@@H](NC[C@@H]2COc3ccccc3O2)CC[C@@H]1Oc1ccccc1 (system: UniProtKB P08908). 7.96

Give the reported pD2 for O[C@H]1[C@@H](NC[C@H]2COc3ccccc3O2)CC[C@@H]1Oc1ccccc1 (system: UniProtKB P08908). 7.3

Give the reported pD2 for O[C@@H]1[C@H](NC[C@@H]2COc3ccccc3O2)CC[C@H]1Oc1ccccc1 (system: UniProtKB P08908). 5.87

* * *

Molecular target: Alpha-1A adrenergic receptor (Homo sapiens, UniProt P35348)
Sequence (P35348 whole entry): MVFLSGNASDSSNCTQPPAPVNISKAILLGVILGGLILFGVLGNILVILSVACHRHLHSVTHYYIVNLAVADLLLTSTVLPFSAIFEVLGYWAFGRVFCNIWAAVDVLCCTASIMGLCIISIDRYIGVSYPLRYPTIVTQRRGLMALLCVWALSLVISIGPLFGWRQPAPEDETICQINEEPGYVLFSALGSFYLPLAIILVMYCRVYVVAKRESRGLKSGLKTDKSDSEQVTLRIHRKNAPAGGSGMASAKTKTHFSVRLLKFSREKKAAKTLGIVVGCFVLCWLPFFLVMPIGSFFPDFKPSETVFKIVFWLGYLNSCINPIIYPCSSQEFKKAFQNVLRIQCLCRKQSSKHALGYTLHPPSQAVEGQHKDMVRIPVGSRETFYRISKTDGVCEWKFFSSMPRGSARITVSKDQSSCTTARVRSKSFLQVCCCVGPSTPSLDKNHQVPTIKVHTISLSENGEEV
readoutType: pKi
In textbook form, pKi equals minus log to base ten of the concentration in mol/L.

Would you mind telling me what pKi value was observed for O[C@@H]1[C@H](NC[C@@H]2COc3ccccc3O2)CC[C@H]1Oc1ccccc1 ? 7.11

Would you mind telling me what pKi value was observed for O[C@H]1[C@@H](NC[C@@H]2COc3ccccc3O2)CC[C@@H]1Oc1ccccc1 ? 6.02

Would you mind telling me what pKi value was observed for O[C@@H]1[C@H](NC[C@H]2COc3ccccc3O2)CC[C@H]1Oc1ccccc1 ? 7.44

Would you mind telling me what pKi value was observed for COc1cccc(OC)c1OCCNCC1COc2ccccc2O1 (stereo not given) ? 9.37

Would you mind telling me what pKi value was observed for O[C@H]1[C@@H](NC[C@H]2COc3ccccc3O2)CC[C@@H]1Oc1ccccc1 ? 6.41

* * *

Kindly state pKi for each of the entries shown.
Target: Alpha-1B adrenergic receptor (Homo sapiens)
Sequence (P35368 whole entry): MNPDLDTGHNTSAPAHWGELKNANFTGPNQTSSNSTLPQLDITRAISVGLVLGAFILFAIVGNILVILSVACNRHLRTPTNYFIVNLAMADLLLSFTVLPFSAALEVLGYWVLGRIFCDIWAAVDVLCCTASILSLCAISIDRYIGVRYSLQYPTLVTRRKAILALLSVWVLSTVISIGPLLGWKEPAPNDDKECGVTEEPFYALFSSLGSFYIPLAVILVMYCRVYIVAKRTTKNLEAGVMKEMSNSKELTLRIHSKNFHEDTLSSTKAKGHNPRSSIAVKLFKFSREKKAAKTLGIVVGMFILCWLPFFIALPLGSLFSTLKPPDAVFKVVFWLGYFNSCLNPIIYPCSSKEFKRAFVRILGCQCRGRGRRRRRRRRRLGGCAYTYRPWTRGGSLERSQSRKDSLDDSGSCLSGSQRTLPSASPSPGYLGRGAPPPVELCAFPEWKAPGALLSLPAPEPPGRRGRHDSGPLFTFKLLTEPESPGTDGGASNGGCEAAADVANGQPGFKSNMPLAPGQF
Assay: Displacement of [3H]prazosin from human cloned Alpha-1B adrenergic receptor
In textbook form, pKi equals minus log to base ten of the concentration in mol/L.

Would you mind telling me what pKi value was observed for O[C@H]1[C@@H](NC[C@H]2COc3ccccc3O2)CC[C@@H]1Oc1ccccc1 ? 5.74

Would you mind telling me what pKi value was observed for O[C@@H]1[C@H](NC[C@@H]2COc3ccccc3O2)CC[C@H]1Oc1ccccc1 ? 7.03

* * *

biological target: D(2) dopamine receptor (Rattus norvegicus, UniProt P61169); assay: Displacement of [3H]spiperone from rat brain Dopamine receptor D2
Sequence (P61169 whole entry): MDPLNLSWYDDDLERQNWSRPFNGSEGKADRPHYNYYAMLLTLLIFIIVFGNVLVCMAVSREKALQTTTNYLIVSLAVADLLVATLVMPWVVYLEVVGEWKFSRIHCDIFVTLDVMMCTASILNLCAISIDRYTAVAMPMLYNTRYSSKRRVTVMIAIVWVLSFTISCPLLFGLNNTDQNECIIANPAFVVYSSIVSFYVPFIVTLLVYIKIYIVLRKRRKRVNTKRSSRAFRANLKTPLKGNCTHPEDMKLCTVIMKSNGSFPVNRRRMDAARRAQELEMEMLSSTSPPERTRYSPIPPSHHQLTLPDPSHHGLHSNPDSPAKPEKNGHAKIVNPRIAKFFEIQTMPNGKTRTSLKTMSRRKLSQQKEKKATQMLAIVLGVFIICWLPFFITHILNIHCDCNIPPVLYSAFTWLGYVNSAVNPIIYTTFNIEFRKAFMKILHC
readoutType: pKi
In textbook form, pKi equals minus log to base ten of the concentration in mol/L.

Would you mind telling me what pKi value was observed for O[C@@H]1[C@H](NC[C@@H]2COc3ccccc3O2)CC[C@H]1Oc1ccccc1 ? 5.21

Would you mind telling me what pKi value was observed for COc1ccccc1N1CCN(CCN2C(=O)CC3(CCCC3)CC2=O)CC1 [BMY-7378] ? 7.31

Would you mind telling me what pKi value was observed for O[C@H]1[C@@H](NC[C@H]2COc3ccccc3O2)CC[C@@H]1Oc1ccccc1 ? 5.62

Would you mind telling me what pKi value was observed for O[C@@H]1[C@H](NC[C@H]2COc3ccccc3O2)CC[C@H]1Oc1ccccc1 ? 5.62

Would you mind telling me what pKi value was observed for O[C@H]1[C@@H](NC[C@@H]2COc3ccccc3O2)CC[C@@H]1Oc1ccccc1 ? 5.95

* * *

target: Alpha-1D adrenergic receptor (Homo sapiens, UniProt P25100); assay: Ability to displace [3H]prazosin from human cloned Alpha-1D adrenergic receptor
Sequence (P25100 whole entry): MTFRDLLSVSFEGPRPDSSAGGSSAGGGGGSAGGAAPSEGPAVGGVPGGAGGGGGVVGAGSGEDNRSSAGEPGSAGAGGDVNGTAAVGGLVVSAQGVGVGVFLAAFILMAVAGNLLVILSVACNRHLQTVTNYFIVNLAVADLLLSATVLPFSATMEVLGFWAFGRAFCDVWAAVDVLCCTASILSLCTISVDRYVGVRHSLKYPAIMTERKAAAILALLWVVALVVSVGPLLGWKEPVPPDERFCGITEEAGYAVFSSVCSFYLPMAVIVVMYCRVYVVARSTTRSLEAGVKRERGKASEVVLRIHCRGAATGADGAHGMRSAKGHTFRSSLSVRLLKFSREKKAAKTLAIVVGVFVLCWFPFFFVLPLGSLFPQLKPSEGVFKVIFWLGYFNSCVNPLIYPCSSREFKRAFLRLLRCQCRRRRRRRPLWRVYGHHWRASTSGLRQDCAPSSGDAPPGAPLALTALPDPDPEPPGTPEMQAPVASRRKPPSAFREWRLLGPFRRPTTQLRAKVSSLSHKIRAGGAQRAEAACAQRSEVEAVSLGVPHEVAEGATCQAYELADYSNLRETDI
readoutType: pKi
In textbook form, pKi equals minus log to base ten of the concentration in mol/L.

Would you mind telling me what pKi value was observed for O[C@@H]1[C@H](NC[C@H]2COc3ccccc3O2)CC[C@H]1Oc1ccccc1 ? 8.10
